The following variants are listed with their measured protein stability index values.
B1: STEAP1 (parent)
chain: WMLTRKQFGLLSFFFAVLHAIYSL

Variants of: B1
Assay: protein stability index of a GFP-peptide fusion (GPS, HEK-293T) (PSI 1-6); higher = more stable;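 note: lentivirally expressed fusions sorted by FACS into six bins by GFP to DsRed ratio, PSI derived from sequencing read proportions per bin multiplied by bin number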
Conditions: c terminus: a fixed tail appended
Form field (numeric): enter value without unit.

Looking up WELTRKQFGLLSFFFAVLHAIYSL [M2E] , I found its protein stability index recorded as 2.08

Entry WMLTRKQFGLLSFFFAMLHAIYSL [V17M] , protein stability index reported as 2.85

Looking up WMKTRKQFGLLSFFFAVLHAIYSL [L3K] , I found its protein stability index recorded as 1.71

Entry under test: WMLTRKQFGLLSFQFAVLHAIYSL [F14Q] . Its protein stability index was 3.11

Lookup result for WMLTRKQFGLLSFFFAVLHAIYDL [S23D] ; measured protein stability index: 1.95

According to the records, this variant WMLTRKQFGLLSFFFMVLHAIYSL [A16M] displays protein stability index of 1.13

Looking up WMLTRKQFGLLSFFFAVLQAIYSL [H19Q] , I see its protein stability index listed as 2.22

Recorded result, WMLTRKMFGLLSFFFAVLHAIYSL [Q7M] , protein stability index: 3.42

# protein stability index (variant: WMLTFKQFGLLSFFFAVLHAIYSL [R5F] ) is 2.14

Notebook: WMLTTKQFGLLSFFFAVLHAIYSL [R5T] , protein stability index read as 3.62

// field: protein stability index; key: WMLTRKQFGLLSFFFAVLHAIYSP [L24P] ; value = 2.08

Recorded protein stability index (variant WMLTRKQFGLMSFFFAVLHAIYSL [L11M] ): 2.52

The variant WMLTRKQFGLLSFFFPVLHAIYSL [A16P] showed protein stability index equal to 1.59

Lab book: protein stability index of WMLTRKDFGLLSFFFAVLHAIYSL [Q7D] noted as 2.01

The variant listed as WMLTRLQFGLLSFFFAVLHAIYSL [K6L] shows protein stability index equal to 3.1

// WMLTRKQFGLLSFFFAVLHAIKSL [Y22K] : protein stability index value = 2.29

Noted for WMLTRKQFGLLSFFFAVLHAIYVL [S23V] : its protein stability index reads 1.94

Item: WMLTHKQFGLLSFFFAVLHAIYSL [R5H] | protein stability index: 3.39

Sample EMLTRKQFGLLSFFFAVLHAIYSL [W1E] ; protein stability index observed: 1.58

For WMLTRKQFGLSSFFFAVLHAIYSL [L11S] the variant record lists protein stability index as 1.62

Field protein stability index (entry WMLPRKQFGLLSFFFAVLHAIYSL [T4P] ) reads 1.7

Origin of values: the supplement of paper PMC10567573
